- Test system: tubulin
- ASSAY_TEXT: Tubulin binding of noscapine and previously reported noscapinoids (literature values)
- MEASUREMENT_PARAMETERS: Table 1; calculated from KD, ΔGbind = RT ln KD, T = 298 K
- Method: Here ⟨ ⟩ represent the ensemble average, b represents the bound form of the ligand, f represents the free form of the ligand, and α, β, and γ are the coefficients. U vdw, U elec, and U cav are the van der Waals, electrostatic, and cavity energy terms in the SGB continuum solvent model. […] Various energy parameters included in equation 1 were calculated from the docked complex corresponding to each analogue using Liaison package as described previously. […]
EXPERIMENTAL_ENDPOINT: Experimental ΔGbind (kcal/mol)

MOL | DISPLAY_UNIT | RESULT_VALUE
COc1ccc2c(c1OC)C(=O)O[C@@H]2[C@H]1c2c(c(F)c3c(c2OC)OCO3)CCN1C | kcal/mol | -5.587
COc1ccc2c(c1OC)C(=O)O[C@@H]2[C@H]1c2c(c(Br)c3c(c2OC)OCO3)CCN1C | kcal/mol | -5.827
COc1ccc2c(c1OC)C(=O)O[C@@H]2[C@H]1c2c(c(N=[N+]=[N-])c3c(c2OC)OCO3)CCN1C | kcal/mol | -6.628
COc1ccc2c(c1OC)C(=O)O[C@@H]2[C@H]1c2c(cc3c(c2OC)OCO3)CCN1C | kcal/mol | -5.246
COc1ccc2c(c1OC)C(=O)O[C@@H]2[C@H]1c2c(c(Cl)c3c(c2OC)OCO3)CCN1C | kcal/mol | -6.006
COc1ccc2c(c1OC)C(=O)O[C@@H]2[C@H]1c2c(c(I)c3c(c2OC)OCO3)CCN1C | kcal/mol | -6.360
COc1ccc2c(c1OC)C(=O)O[C@@H]2[C@H]1c2c(c([N+](=O)[O-])c3c(c2OC)OCO3)CCN1C | kcal/mol | -5.551
